Data origin, for the record: the RNAGym collection of RNA variant scans (doi:10.1021/acssynbio.7b00057)

B1: Pistol ribozyme (parent)
chain: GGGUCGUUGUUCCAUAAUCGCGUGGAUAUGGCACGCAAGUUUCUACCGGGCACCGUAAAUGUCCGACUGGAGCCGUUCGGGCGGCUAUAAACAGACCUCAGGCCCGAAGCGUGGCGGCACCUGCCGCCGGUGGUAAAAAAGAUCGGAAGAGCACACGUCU

variants of: B1; experiment: aptazyme ON/OFF ratio, guanine; higher = stronger switching; co-transcriptional cleavage with and without guanine
property: aptazyme ON/OFF ratio
When you answer, write just the number.

Example entries and their recorded answers appear below.
[[record]]
changes = "U7G U8A G9U C12U C13U"
property = "aptazyme ON/OFF ratio"
value = 1.07

[[record]]
changes = "U7G U8A G9A U10C U11A C12G"
property = "aptazyme ON/OFF ratio"
value = 1.15

[[record]]
changes = "U8C U10C U11A C12A"
property = "aptazyme ON/OFF ratio"
value = 1.34


Asked: // lookup aptazyme ON/OFF ratio for U7A U8G U10G C13G
Given back: 1.14

Asked: Likewise for U7A U8G G9C U11C C12G C13G ?
Given back: 1.11

Asked: Further, for U7A U8A G9U U10G U11G C12G C13U ?
Given back: 1.22

Asked: Ok, now U7G U8G U10C U11C C12U C13U
Given back: 1.4

Asked: What do you have for U7G U8C G9C U10G U11C C12U C13U ?
Given back: 1.4

Asked: And then U7G G9C U10G C12A C13G , what is it?
Given back: 1.11

Asked: Similarly, U7C U8A G9U U10G U11C C12U ?
Given back: 1.07

Asked: Another variant to look at: U7C U8A G9A U11A C12G C13G
Given back: 1.19

Asked: What do you get for U8C G9C U10C U11C C12G C13G ?
Given back: 1.09

Asked: Moving on to U7C U8A G9C U10A U11G C12U C13U
Given back: 1.13

Asked: Continue with U8C G9U U10G U11A C13G
Given back: 1.13

Asked: Quick one: U7G G9U U10C U11C C13G
Given back: 1.07

Asked: Now the variant U8G G9U U10C U11C C12A C13A
Given back: 1.05

Asked: And U7G G9C U11C C12U C13U ?
Given back: 1.25
